Reported values of Critical temperature for individual entries
- APPLIED_CONDITIONS: Liquid; Flow apparatus with low residence time
All answers are understood in K, so give the number only.

> print(dat)
      compound         quantity.kind  units.of.measure  readout.number
1  O=CN1CCOCC1  Critical temperature                 K           779.3

Recorded result, CC(=O)OC(C)(C)C [1,1-dimethylethyl ethanoate] , Critical temperature: 541.2

Recorded result, CSSC , Critical temperature: 607.8

----------
- APPLIED_CONDITIONS: Liquid; Flow apparatus with low residence time
Reported values of Critical pressure for individual entries
All answers are understood in kPa, so give the number only.

The examples below pair each entry with its known result.
> print(dat)
                                   compound      quantity.kind  units.of.measure  readout.number
1                                   NCCOCCO  Critical pressure               kPa            4800
2  CC(=O)OC(C)(C)C [1,1-dimethylethyl ethanoate]  Critical pressure               kPa            3040
3         O=C=Nc1ccccc1 [phenyl isocyanate]  Critical pressure               kPa            4000
4  CC(=O)OC(C)OC(C)=O [ethylidene diethanoate]  Critical pressure               kPa            2970
5                                 OCCCOCCCO  Critical pressure               kPa            3380
6                                 CC1(C)CO1  Critical pressure               kPa            4350
7                                 O=C1CCCO1  Critical pressure               kPa            5100
8                                CN(CCO)CCO  Critical pressure               kPa            4160

Recorded result, CSSC , Critical pressure: 5070

Recorded result, CC(O)CCO (stereo not given) , Critical pressure: 5180

Recorded result, O=CN1CCOCC1 , Critical pressure: 5080

Recorded result, C=CC(=O)OCCCC [butyl 2-propenoate] , Critical pressure: 2840

----------
- APPLIED_CONDITIONS: Liquid; Flow apparatus with low residence time
QUANTITY_KIND: Critical temperature (K)
All answers are understood in K, so give the number only.

> print(dat)
                                   compound  readout.number
1                                 O=C1CCCO1           732.5
2                                 CC1(C)CO1           499.9
3                                   c1cocn1           550.8
4  CC(=O)OC(C)OC(C)=O [ethylidene diethanoate]           618.2
5   CCOC(=O)C(=O)OCC [diethyl ethanedioate]           645.8

Next compound, please.
Recorded result, OCCCOCCCO , Critical temperature: 705.2

----------
- APPLIED_CONDITIONS: Liquid; Flow apparatus with low residence time
Reported values of Critical pressure for individual entries
All answers are understood in kPa, so give the number only.

Recorded result, c1cocn1 , Critical pressure: 6770

Recorded result, CCOC(=O)C(=O)OCC [diethyl ethanedioate] , Critical pressure: 3060

Recorded result, CC(C)c1ccc(C(C)C)cc1 , Critical pressure: 2360

----------
- APPLIED_CONDITIONS: Liquid; Flow apparatus with low residence time
QUANTITY_KIND: Critical temperature (K)
All answers are understood in K, so give the number only.

The examples below pair each entry with its known result.
> print(dat)
                            compound  readout.number
1  O=C=Nc1ccccc1 [phenyl isocyanate]           656.9
2                            NCCOCCO           721.2
3      CC(O)CCO (stereo unspecified)           692.4
4                         CN(CCO)CCO           741.9

Recorded result, CC(C)c1ccc(C(C)C)cc1 , Critical temperature: 676.2

Recorded result, C=CC(=O)OCCCC [butyl 2-propenoate] , Critical temperature: 601.2
